Assay: yeast display, Sf9 membrane polyspecificity reagent, FACS + sequencing; frameworks hold sequencing errors
observation-type: polyreactivity (PSR sort gate)

Example entries and their recorded answers appear below.
sequence-entry | polyreactivity (PSR sort gate)
QVQLVESGGGLVQAGGSLRLSCAASGRIFIPNTMGWYIQAPGKERELVAAITWSGSSTYYADSVKGRFTISRDNAKNTVYLQMNSLKPEDTAVYYCAAYPSCYVVVSKGDYWGQGTQVTVSS | high polyreactivity
QVQLVESGGGLVQAGGSLRLSCAASGSIFYGYAMAWYRQAPGKERELVAAITRSGGSTYYADSVKGRFTISRDNAKNTVYLQMNSLKPEDTAVYYCAAVSRSRRMDYWGQGTQVTVSS | high polyreactivity
QVQLVESGGGLVQAGGSLRVSCAASGRIIPSYAMGWYRQAPGKERELVAVIRSSVDGTYYADSVKGRFTISRDNAKNTVYLQMNSLKPEDTAVYYCAADSYPFFNLNQYPVREGEYGHWGQGTQVTVSS | low polyreactivity
QVQLVESGGGLVQAGGSLRLSCAASGSTQNVYAMGWYRQATGKERELVAAIRWSGDTYYADSVKGRFTISRDNAKNTVYLQMNSLKPEDTAVYYCAAVPGTTYWQRFDYWGQGTQVTVSS | low polyreactivity

Would you kindly look at the next entry?
**Query** Give recorded polyreactivity (PSR sort gate). "QVQLVESGGGLVQAGGSLRLSCAASGRIFFLYAMGWYRQAPGKERELVASITRRGGSTYYADSVKGRFTISRDNAKNTVYLQMNSLKPEDTAVYYCAAELYRSNVYHYDYWGQGTQVTVSS"
**Result** high polyreactivity
